This collection of values is drawn from patent US20260374739A1.

tgt: EphA3-EphrinA1 (Homo sapiens)
Sequence (P29320 21-541 limits assumed): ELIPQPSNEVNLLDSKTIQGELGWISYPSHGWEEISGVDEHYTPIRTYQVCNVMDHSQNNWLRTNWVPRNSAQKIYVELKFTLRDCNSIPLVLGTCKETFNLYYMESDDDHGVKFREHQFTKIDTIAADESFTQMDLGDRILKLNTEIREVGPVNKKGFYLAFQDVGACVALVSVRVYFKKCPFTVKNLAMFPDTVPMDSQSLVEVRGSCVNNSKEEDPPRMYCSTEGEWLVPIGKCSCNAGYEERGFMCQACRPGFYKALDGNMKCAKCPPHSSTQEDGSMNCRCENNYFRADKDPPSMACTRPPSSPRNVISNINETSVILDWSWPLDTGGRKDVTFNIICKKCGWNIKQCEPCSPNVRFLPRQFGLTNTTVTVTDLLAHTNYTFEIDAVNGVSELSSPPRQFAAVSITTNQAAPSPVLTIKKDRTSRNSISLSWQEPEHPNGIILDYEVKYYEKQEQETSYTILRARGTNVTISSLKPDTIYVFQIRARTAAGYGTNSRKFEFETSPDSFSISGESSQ
protocolDescription: Octet, immobilized human EphA3 binding to human EphrinA1
condition: Relative Dissociation IC50, Human EphA3-EphrinA1; immobilized human EphA3; 50 nM soluble human EphrinA1; dissociation; relative
Measured pIC50, listed per entry.
Quick note: pIC50 means taking -log10 of the concentration in moles per liter.

mol	observable	reportedValue
Oc1ccc(CN2CCN(Cc3ccc(C(F)(F)F)cc3)CC2)c2cccnc12	pIC50	5.28

Could you tell me which pIC50 is on file for `O=S1(=O)CCN(Cc2ccc(O)c3ncccc23)CC1` ? 5.22

###

tgt: EphrinB2-EphB1 (Homo sapiens)
Construct: soluble human EphB1-His, EphB2-His, and EphB4-His ectodomains; commercially available human EphrinB1-Fc (EB1), EphrinB2-Fc (EB2), and EphrinB3-Fc (EB3) ectodomain proteins; purchased
Sequence (P54762 18-540 limits assumed): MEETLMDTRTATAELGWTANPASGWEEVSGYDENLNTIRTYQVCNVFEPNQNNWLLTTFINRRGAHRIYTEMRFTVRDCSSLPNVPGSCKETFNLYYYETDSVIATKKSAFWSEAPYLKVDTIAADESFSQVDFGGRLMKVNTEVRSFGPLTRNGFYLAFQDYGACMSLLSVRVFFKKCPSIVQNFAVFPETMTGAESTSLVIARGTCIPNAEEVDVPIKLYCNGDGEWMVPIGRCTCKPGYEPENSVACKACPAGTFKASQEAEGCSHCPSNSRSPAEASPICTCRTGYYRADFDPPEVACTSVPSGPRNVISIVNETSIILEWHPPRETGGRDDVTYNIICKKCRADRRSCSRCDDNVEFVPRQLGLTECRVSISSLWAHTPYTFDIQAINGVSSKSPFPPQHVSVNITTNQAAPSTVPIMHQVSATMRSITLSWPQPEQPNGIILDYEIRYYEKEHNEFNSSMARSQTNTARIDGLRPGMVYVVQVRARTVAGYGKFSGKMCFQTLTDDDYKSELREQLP
protocolDescription: Octet 80 sec association/500 sec dissociation, immobilized human EphrinB2-Fc binding to soluble human EphB1-His
condition: at 3.2 μM and 80 seconds; immobilized human EphrinB2; 25 nM soluble human EphB1
observable: EphB1 Inhibition Percent, Inhibition of Association ONLY (%)
Your answer is read as %, so omit the unit and give the number.

compound	reportedValue
Oc1c(Cl)cc(CN2CCOCC2)c2cccnc12 [Compound 4]	34.2
Cc1ccc2c(CN3CCN(c4ccc(Br)cc4)CC3)ccc(O)c2n1 [Compound 61]	8.1
Oc1c(I)cc(CN2CCN(Cc3ccc(Br)cc3)CC2)c2cccnc12 [Compound 46]	51.6

Could you tell me which EphB1 Inhibition Percent, Inhibition of Association ONLY is on file for O=S1(=O)CCN(Cc2cc(I)c(O)c3ncccc23)CC1 [Compound 19] ? 33.9

Could you tell me which EphB1 Inhibition Percent, Inhibition of Association ONLY is on file for COc1ccc2[nH]cc(C(=O)N3CCOCC3)c2c1 [Compound 63] ? 1.2

Could you tell me which EphB1 Inhibition Percent, Inhibition of Association ONLY is on file for Oc1ccc(CN2CCN(c3ccc(F)cc3F)CC2)c2cccnc12 [Compound 62] ? 17.9
